tested on: PTP1B mRNA; test: Dose response for human PTP1B in HuVEC cells, Primer Probe Set 198 (Example 25, Table 86); assay type: cell-based; details: PPS 198, 30.0 nM
Strand notation (5' to 3'): a small letter for the sugar, then the base; units joined by * are phosphorothioate-linked, units joined directly phosphodiester-linked; [ ] holds rarer units or linkages, { } end groups; capitals alone tell only the bases. e = 2'-O-(2-methoxyethyl) (MOE); [5mC] = 5-methylcytosine; d = 2'-deoxy (DNA)
assayEndpoint: % Inhibition of PTP1B mRNA (%)
Write the value in % as a bare number.

{"substance": "398120 (antisense eG*eT*dT*d[5mC]*dA*dA*dG*d[5mC]*dG*dG*d[5mC]*d[5mC]*eT*eA) [compound 398120]", "experimentalResult": 96}
{"substance": "399315 (antisense eG*eG*d[5mC]*dA*dA*d[5mC]*dT*dT*d[5mC]*dA*dA*d[5mC]*e[5mC]*eT) [compound 399315]", "experimentalResult": 88}

Q) What % Inhibition of PTP1B mRNA value was documented for this substance, 398112 (antisense e[5mC]*eA*dG*d[5mC]*d[5mC]*dT*dG*dG*d[5mC]*dA*d[5mC]*d[5mC]*eT*eA) [compound 398112] ?
A) 93

Q) What % Inhibition of PTP1B mRNA value was documented for this substance, 399096 (antisense eT*eG*d[5mC]*dT*d[5mC]*dG*dA*dA*d[5mC]*dT*d[5mC]*d[5mC]*eT*eT) [compound 399096] ?
A) 96

Q) What % Inhibition of PTP1B mRNA value was documented for this substance, 399208 (antisense eA*eG*d[5mC]*dT*d[5mC]*dG*d[5mC]*dT*dA*d[5mC]*d[5mC]*dT*e[5mC]*eT) [compound 399208] ?
A) 93

Q) What % Inhibition of PTP1B mRNA value was documented for this substance, 399102 (antisense eG*eA*dA*dG*dT*d[5mC]*dA*d[5mC]*dT*dG*dG*d[5mC]*eT*eT) [compound 399102] ?
A) 88

Q) What % Inhibition of PTP1B mRNA value was documented for this substance, 398105 (antisense eT*eG*d[5mC]*dA*d[5mC]*dA*dG*dG*d[5mC]*dA*dG*dG*eT*eT) [compound 398105] ?
A) 90

----------
# reported % Inhib (PTP1B mRNA); entries follow
tested on: PTP1B mRNA; experiment: Antisense inhibition of human PTP1B in HepG2 cells at 25 nM (Example 24, Table 85); assay type: cell-based
Strand notation (5' to 3'): a small letter for the sugar, then the base; units joined by * are phosphorothioate-linked, units joined directly phosphodiester-linked; [ ] holds rarer units or linkages, { } end groups; capitals alone tell only the bases. e = 2'-O-(2-methoxyethyl) (MOE); [5mC] = 5-methylcytosine; d = 2'-deoxy (DNA)
Write the value in % as a bare number.

{"substance": "404137 (antisense e[5mC]*eA*dG*dT*dG*dT*dG*d[5mC]*dA*d[5mC]*dA*d[5mC]*eA*eG) [compound 404137]", "% Inhib (PTP1B mRNA) [%]": 71}
{"substance": "404138 (antisense e[5mC]*eT*d[5mC]*dA*dG*dT*dG*dT*dG*d[5mC]*dA*d[5mC]*eA*e[5mC]) [compound 404138]", "% Inhib (PTP1B mRNA) [%]": 86}
{"substance": "399301 (antisense eG*eT*dG*dT*dG*d[5mC]*dA*d[5mC]*dA*d[5mC]*dA*dG*e[5mC]*eT) [compound 399301]", "% Inhib (PTP1B mRNA) [%]": 43}
{"substance": "404139 (antisense eG*eT*dG*d[5mC]*dA*d[5mC]*dA*d[5mC]*dA*dG*d[5mC]*dT*eG*eA) [compound 404139]", "% Inhib (PTP1B mRNA) [%]": 45}

Please examine the following record next.
Q) What % Inhib (PTP1B mRNA) value was documented for this substance, 404140 (antisense eG*e[5mC]*dA*d[5mC]*dA*d[5mC]*dA*dG*d[5mC]*dT*dG*dA*eG*eG) [compound 404140] ?
A) 93
